pIC50: −log10 of the molar value.
experimentalReadout: pIC50

Note to self: pIC50 of O=c1[nH]c2ccccc2n2c(S)nnc12 with Glutamate receptor 1 (Rattus norvegicus, UniProt P19490) was < 3.52

###

tgt: Glutamate receptor ionotropic, NMDA 1 [F484A,T518L]/3B (Rattus norvegicus, UniProt P35439+Q8VHN2, F484A/T518L)
Sequence (Q8VHN2 25-1002 limits assumed, other chains not shown): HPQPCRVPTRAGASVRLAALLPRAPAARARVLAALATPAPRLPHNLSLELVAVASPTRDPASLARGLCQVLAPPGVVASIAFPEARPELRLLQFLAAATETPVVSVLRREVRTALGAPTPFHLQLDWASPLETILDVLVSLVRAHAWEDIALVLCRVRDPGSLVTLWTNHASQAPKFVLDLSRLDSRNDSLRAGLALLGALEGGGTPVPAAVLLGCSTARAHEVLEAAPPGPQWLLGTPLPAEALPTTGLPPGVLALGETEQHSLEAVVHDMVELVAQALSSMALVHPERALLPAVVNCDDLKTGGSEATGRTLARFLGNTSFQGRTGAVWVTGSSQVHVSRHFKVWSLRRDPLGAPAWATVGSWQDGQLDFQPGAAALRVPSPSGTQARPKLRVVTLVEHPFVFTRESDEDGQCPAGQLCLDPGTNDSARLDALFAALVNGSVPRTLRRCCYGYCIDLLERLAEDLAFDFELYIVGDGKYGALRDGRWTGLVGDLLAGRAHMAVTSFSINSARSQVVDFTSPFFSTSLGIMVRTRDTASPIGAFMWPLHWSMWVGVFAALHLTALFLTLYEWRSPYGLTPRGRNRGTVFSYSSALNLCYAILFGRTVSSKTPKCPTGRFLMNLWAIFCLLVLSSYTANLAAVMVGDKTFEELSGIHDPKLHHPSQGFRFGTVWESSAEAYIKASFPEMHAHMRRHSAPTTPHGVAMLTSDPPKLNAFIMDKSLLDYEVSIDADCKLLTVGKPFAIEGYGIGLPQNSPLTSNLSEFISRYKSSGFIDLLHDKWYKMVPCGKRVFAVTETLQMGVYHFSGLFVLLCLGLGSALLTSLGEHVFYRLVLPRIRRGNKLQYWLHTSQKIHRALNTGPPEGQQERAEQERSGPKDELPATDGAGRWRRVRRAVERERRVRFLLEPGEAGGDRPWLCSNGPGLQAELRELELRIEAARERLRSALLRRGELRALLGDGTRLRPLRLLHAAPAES
protocolNotes: Two-electrode Voltage Clamp Electrophysiology
conditionInfo: pH 7.4; 25 °C
experimentalReadout: IC50

Form: molecule = O=C(O)c1cc(O)c2c(Cl)cc(Cl)cc2n1 ; IC50 = > 300 µM

###

tgt: Glutamate receptor 1 (Rattus norvegicus, UniProt P19490)
Sequence (P19490 whole entry): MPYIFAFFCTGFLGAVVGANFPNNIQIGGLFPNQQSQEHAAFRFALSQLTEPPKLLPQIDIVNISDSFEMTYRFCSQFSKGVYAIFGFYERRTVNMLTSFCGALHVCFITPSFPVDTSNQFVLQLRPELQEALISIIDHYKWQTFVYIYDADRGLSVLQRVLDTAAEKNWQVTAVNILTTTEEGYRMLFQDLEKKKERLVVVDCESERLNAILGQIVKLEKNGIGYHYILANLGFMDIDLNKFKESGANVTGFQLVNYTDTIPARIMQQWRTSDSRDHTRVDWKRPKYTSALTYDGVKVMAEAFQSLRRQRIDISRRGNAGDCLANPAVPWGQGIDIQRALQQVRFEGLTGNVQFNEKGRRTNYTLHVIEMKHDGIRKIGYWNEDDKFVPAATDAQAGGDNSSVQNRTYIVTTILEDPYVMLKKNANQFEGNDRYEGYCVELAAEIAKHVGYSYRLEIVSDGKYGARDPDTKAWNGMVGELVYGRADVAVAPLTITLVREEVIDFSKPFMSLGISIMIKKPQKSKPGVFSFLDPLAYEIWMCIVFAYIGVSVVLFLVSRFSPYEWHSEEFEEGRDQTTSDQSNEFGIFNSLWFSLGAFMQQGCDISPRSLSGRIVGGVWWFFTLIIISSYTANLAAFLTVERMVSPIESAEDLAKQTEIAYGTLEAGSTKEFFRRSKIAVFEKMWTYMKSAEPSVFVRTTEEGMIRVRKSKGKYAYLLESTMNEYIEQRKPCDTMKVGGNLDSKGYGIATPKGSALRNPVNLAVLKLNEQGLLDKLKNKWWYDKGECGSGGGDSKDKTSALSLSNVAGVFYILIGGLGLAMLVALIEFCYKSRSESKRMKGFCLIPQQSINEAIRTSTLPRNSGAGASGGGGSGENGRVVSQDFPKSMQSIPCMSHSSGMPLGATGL
protocolNotes: Two-electrode Voltage Clamp Electrophysiology
conditionInfo: pH 7.4; 25 °C
pKi: −log10 of the molar value.
experimentalReadout: pKi

Form: compound = O=c1[nH]c2ccccc2n2c(S)nnc12 ; pKi = < 3.74
